- Read-out: Fatty acid synthase (Homo sapiens) (UniProt P49327)
- Sequence (P49327 whole entry, looked up): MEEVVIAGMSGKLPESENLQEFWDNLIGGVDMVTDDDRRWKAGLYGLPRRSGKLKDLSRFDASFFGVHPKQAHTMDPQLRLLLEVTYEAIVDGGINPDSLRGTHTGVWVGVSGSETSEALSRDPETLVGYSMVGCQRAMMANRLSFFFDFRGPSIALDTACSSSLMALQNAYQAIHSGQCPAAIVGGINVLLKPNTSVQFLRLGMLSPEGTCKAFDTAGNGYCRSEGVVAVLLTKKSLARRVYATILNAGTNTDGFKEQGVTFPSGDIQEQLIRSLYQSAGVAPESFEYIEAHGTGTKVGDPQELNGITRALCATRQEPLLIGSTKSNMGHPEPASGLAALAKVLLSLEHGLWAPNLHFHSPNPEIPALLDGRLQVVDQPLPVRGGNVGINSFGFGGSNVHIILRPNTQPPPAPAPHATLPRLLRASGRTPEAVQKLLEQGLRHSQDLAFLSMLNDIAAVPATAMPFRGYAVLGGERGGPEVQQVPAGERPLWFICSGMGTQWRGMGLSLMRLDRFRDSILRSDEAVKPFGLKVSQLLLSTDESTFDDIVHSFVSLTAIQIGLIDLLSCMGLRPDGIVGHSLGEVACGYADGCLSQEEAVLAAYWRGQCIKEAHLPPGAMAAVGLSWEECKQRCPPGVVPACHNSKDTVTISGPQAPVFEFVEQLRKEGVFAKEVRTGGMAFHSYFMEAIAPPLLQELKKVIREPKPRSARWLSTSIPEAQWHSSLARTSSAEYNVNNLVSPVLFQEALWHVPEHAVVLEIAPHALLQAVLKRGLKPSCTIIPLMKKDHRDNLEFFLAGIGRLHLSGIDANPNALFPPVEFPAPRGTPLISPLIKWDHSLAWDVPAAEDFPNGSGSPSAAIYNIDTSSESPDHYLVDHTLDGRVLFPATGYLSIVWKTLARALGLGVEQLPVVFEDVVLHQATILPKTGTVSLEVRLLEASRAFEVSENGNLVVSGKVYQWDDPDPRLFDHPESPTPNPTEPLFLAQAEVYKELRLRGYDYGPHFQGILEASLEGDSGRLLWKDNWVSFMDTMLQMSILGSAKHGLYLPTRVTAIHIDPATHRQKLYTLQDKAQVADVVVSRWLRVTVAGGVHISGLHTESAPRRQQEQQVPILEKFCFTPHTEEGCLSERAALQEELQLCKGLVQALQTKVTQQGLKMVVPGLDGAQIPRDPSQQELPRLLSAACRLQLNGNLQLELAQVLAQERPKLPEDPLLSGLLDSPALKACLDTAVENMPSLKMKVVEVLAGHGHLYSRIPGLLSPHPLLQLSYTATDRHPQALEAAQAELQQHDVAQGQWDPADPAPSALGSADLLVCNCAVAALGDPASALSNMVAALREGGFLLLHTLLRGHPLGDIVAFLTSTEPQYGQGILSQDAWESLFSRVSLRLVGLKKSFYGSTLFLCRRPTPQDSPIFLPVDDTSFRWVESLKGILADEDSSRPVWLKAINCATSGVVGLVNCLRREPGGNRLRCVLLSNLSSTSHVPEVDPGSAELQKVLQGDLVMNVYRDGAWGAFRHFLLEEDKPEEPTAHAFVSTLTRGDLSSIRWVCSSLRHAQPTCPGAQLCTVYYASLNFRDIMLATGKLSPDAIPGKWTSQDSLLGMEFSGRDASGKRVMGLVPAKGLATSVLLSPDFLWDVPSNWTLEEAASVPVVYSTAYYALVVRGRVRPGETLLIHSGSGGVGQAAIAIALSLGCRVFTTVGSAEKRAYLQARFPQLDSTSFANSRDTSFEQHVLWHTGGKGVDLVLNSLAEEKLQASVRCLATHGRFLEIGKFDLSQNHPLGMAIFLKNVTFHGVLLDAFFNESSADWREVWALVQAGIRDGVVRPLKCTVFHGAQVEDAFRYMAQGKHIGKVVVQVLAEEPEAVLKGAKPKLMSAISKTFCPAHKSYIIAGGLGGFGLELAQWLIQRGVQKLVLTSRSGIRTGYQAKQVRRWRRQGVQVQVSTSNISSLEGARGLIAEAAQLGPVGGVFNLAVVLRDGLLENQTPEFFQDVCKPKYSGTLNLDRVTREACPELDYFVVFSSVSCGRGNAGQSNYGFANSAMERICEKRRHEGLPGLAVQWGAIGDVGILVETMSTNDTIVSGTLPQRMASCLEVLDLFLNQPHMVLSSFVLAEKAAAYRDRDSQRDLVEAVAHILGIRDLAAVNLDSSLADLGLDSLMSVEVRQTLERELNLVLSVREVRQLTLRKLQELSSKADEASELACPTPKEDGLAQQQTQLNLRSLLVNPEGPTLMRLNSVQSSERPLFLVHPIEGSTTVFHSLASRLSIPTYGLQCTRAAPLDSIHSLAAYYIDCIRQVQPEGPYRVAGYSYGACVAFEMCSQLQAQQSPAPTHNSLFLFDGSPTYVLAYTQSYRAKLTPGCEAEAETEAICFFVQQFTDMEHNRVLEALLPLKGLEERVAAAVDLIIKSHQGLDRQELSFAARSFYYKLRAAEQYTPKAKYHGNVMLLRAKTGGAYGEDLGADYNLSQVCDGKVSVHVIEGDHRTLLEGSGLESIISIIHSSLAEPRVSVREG
- ASSAY_PROCEDURE: LTEA_HepaRG_FASN: Life Technologies and Expression Analysis (LTEA) Assay for Fatty Acid Synthase (FASN) using HepaRG (AID 2283448)
- PARTICULARS: mRNA level, 48 h; actives raise or lower the signal
- Protocol: LTEA_HepaRG is a cell based, multiplexed-readout assay that uses HepaRG, a human liver cell line, with measurements taken at 48 hours after chemical dosing on a 96-well plate.LTEA_HepaRG_FASN is one of 102 assay component(s) measured in the LTEA HepaRG cell culture assay. It is a marker of Steatosis.Data from the assay component LTEA_HepaRG_FASN was analyzed into 1 endpoint. […]
Activity calls are given as the source filed them. Rule for the calls: active = hit-call score of the fitted dose curve at least 0.9, where 1 is the maximum; inactive = score below 0.9.
Possible outcomes: True for active, False for inactive

>  <COMPOUND>
Nc1ccc(Cl)cc1

>  <LABEL>
False

$$$$
>  <COMPOUND>
CCOP(=S)(Oc1ccc([N+](=O)[O-])cc1)c1ccccc1 (stereo not given)

>  <LABEL>
False

$$$$
>  <COMPOUND>
c1cc2c3c(cccc3c1)CC2

>  <LABEL>
False

$$$$
>  <COMPOUND>
CCN(CC)c1ccccc1

>  <LABEL>
False

$$$$
>  <COMPOUND>
CCOP(=S)(OCC)SCSCC

>  <LABEL>
False

$$$$
>  <COMPOUND>
OCC1CO1 (stereo not given)

>  <LABEL>
False

$$$$
>  <COMPOUND>
CCOS(=O)(=O)OCC

>  <LABEL>
False

$$$$
>  <COMPOUND>
CCNc1nc(Cl)nc(NC(C)(C)C)n1

>  <LABEL>
False

$$$$
>  <COMPOUND>
Nc1ccc2ccccc2c1

>  <LABEL>
True

$$$$
>  <COMPOUND>
CCCCN(CCCC)N=O

>  <LABEL>
False

$$$$
>  <COMPOUND>
O=P1(N(CCCl)CCCl)NCCCO1 (stereo not given)

>  <LABEL>
False

$$$$
>  <COMPOUND>
c1nc[nH]n1

>  <LABEL>
False

$$$$
>  <COMPOUND>
CCCCN(CCCC)SN(C)C(=O)Oc1cccc2c1OC(C)(C)C2

>  <LABEL>
False

$$$$
>  <COMPOUND>
c1ccc(OP(Oc2ccccc2)Oc2ccccc2)cc1

>  <LABEL>
False

$$$$
>  <COMPOUND>
CC(Cl)(Cl)C(=O)O

>  <LABEL>
False

$$$$
>  <COMPOUND>
O=C(O)C1C(C(=O)O)C2(Cl)C(Cl)=C(Cl)C1(Cl)C2(Cl)Cl (stereo not given)

>  <LABEL>
False

$$$$
>  <COMPOUND>
O=P(Oc1ccccc1)(Oc1ccccc1)Oc1ccccc1

>  <LABEL>
False

$$$$
>  <COMPOUND>
[N-]=[N+]=[N-]

>  <LABEL>
False

$$$$
>  <COMPOUND>
Nc1cc2c3c(c1)C(c1ccccc1)=N[C@@H](NC(=O)c1cccnc1)C(=O)N3CC2

>  <LABEL>
False

$$$$
>  <COMPOUND>
CC(C)(C)OOC(C)(C)C

>  <LABEL>
False

$$$$
